- experimental_details: NCI Yeast Anticancer Drug Screen. Data for the mec2-1 strain (AID 157)
- conditions_used: S. cerevisiae mec2-1 strain, at 50.0 µM, active compounds read high
This is part of a sample that, as a whole, favours compounds with a hit. Of some 79,000 tested, about 15% had one in any assay.
Quick reference: growth inhibition of the listed items.
Hi! Could you send only the number? It should be in %, unit omitted.

Previously resolved entries follow.
> print(dat)
                                   molecule    recorded.metric  result.value
1  O=C1c2ccccc2C(=O)c2cc(C[n+]3ccccc3C3OCCO3)ccc21  growth inhibition           7.2
2  C=C1C(=O)OC2C=C(C)CC3C=C(CCC=C(C)CCC12)C(=O)O3 (stereo not drawn)  growth inhibition         -33.5

Alright, here's another molecule for you.
Enquiry: Recorded growth inhibition for O=C1C=C(Nc2ccc(Cl)cc2C(=O)c2ccccc2)c2ccccc2C1=O , please?
Return: -11.7

====

Collected growth inhibition values appear next to each entry.
- experimental_details: NCI Yeast Anticancer Drug Screen. Data for the sgs1 mgt1 strain (AID 161);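 note: 0% = growth of cultures given vehicle only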
- conditions_used: S. cerevisiae sgs1 mgt1 strain, at 50.0 µM, active compounds read high
This is part of a sample that, as a whole, favours compounds with a hit. Of some 79,000 tested, about 15% had one in any assay.
Reply with just the number (in %).

> print(dat)
                                  compound  unit.tag  result.value
1                  COc1ccc2ncc(C)c(CO)c2c1         %         -1.65
2              N#CC1=C(N2CCCC2)NC(=O)CC1=O         %          -0.6
3                      NC(=S)N/N=C/c1ccco1         %         -18.3
4         Cc1cc(Cl)c(=O)n(-c2ccc(Cl)cc2)n1         %          9.45
5   CCOC(=O)c1c(Br)c2c3ccccc3c3ccccc3n2c1C         %         -3.75
6                    O=C(O)CCn1ccc2ccccc21         %           4.8
7  CC(=O)CCC(CC=O)C(C)C (stereo not given)         %           7.6
8     Cc1cccc(-c2cc(=O)c3c(C)ccnc3[nH]2)c1         %         -0.85
9                  Cn1ncc2c(N)nc(NCCO)nc21         %         -4.75

Alright, here's another compound for you.
Enquiry: Entry under review: CCc1cccc(C(=O)NCCN(C)C)c1[N+](=O)[O-] . Reported growth inhibition?
Return: -12.2

====

- experimental_details: NCI Yeast Anticancer Drug Screen. Data for the rad50 strain (AID 155);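 note: 0% = growth of vehicle-only cultures of the same strain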
- conditions_used: S. cerevisiae rad50 strain growth inhibition; at 50.0 µM; active compounds read high
The panel holds about 79,000 compounds, 15% with a hit somewhere; the sample as a whole holds those more often.
Reported growth inhibition values for the following molecules.
# unit: % | format: bare number

The cases that follow already have their growth inhibition on record.
> print(dat)
                                   molecule  result.value
1  Cc1cc2c(C)n(Cc3ccc(Cl)cc3Cl)nc2c(C#N)c1C         -11.2
2       CCCCCCC(C(=O)OCC)(C(=O)OCC)c1ccccc1         -10.8
3  Cc1cc2c(cc1C)NC(=O)C(NC(=O)c1ccc(Cl)cc1)C=N2 (stereo not drawn)         -0.55
4  O=[N+]([O-])c1ccccc1C1N2CCCCC2[C@@H]2c3[nH]c4ccccc4c3CCN12 (stereo partly drawn)           0.2
5     COc1ccc(C(=O)O)c2c(=O)c3ccccc3[nH]c12         -28.8

Enquiry: For the molecule CC12NN=NC1C(=O)NC2=O (stereo not drawn) , what growth inhibition is on record?
Return: 0.85

Enquiry: Recorded growth inhibition for CC(=O)c1ccc(N2C(=O)C3c4[nH]c5ccccc5c4C4CCC(C(C)(C)C)CC4C3C2=O)cc1 (stereo not drawn) , please?
Return: 42.8

Enquiry: Any idea what its growth inhibition is? The molecule is COc1cccc(N=Nc2c(-c3ccccc3)nn(C(=S)S)c2C)c1
Return: -2.6

====

- experimental_details: NCI Yeast Anticancer Drug Screen. Data for the mlh1 rad18 strain (AID 175)
- conditions_used: S. cerevisiae mlh1 rad18 strain growth inhibition; at 50.0 µM; active compounds read high
The panel holds about 79,000 compounds, 15% with a hit somewhere; the sample as a whole holds those more often.
recorded_metric: growth inhibition (%)
Only the number, expressed in %, is required.

> print(dat)
                                   compound  result.value
1  CCC1(CC)C(=O)N(C(=O)c2ccccc2)N(C(=O)c2ccc(Cl)cc2)C1=O         -79.8
2                       Nc1nc(-c2ccccc2)ns1          -2.3
3  CN(C)c1ccc(/C=c2\[nH]c(=O)/c(=C\c3ccc(N(C)C)cc3)[nH]c2=O)cc1          16.2
4                         CC(C)C1CCC(=O)CC1          -4.9
5  CCC1(c2ccccc2)NC(=O)N(N)C1=O (stereo not drawn)          1.85

Enquiry: Find the recorded growth inhibition belonging to CSc1cc(/C=C/c2ccccc2)ccc1[N+](=O)[O-] and report it.
Return: 4.45

Enquiry: Query: growth inhibition; subject: OC1CC/C=C\CC/C=C/CCC1O (stereo not drawn)
Return: 0.55

Enquiry: Sample COc1ccc(/C=C/Cc2cc3c(cc2OC(C)=O)OCO3)cc1 — what was its growth inhibition?
Return: 12.4

====

- experimental_details: NCI Yeast Anticancer Drug Screen. Data for the bub3 strain (AID 167)
- conditions_used: S. cerevisiae bub3 mutant strain, at 50.0 µM, active compounds read high
About 79,000 compounds went through this panel and 15% of them were active in at least one assay; those are over-represented in the sample as a whole.
recorded_metric: growth inhibition (%)
Report only the number, with the unit % understood.

Examples from the recorded data:
> print(dat)
                                   molecule    recorded.metric  result.value
1  CC1(c2cccc[n+]2Cc2ccccc2S(=O)(=O)[O-])OCCO1  growth inhibition         -3.95
2  COC(=O)C(=O)C1CSC2=C(CS(=O)(=O)c3ccccc32)C1=O (stereo unspecified)  growth inhibition         -17.5
3               CNc1c(F)cc(N=Nc2ccccc2)cc1F  growth inhibition            -4

Enquiry: May I ask what growth inhibition has been recorded for CN(C)CCNC(=O)c1cnn(C)c1[N+](=O)[O-] ?
Return: 0

Enquiry: // returns reported growth inhibition for input Cc1cc(NC(=O)C(=O)CC(=O)c2cccnc2)no1
Return: -6.2

Enquiry: Endpoint output: growth inhibition of O=C(c1ccc(CSc2ccc(Cl)cc2)o1)N1CCOCC1 . Value?
Return: 32.6

Enquiry: Form field: reported growth inhibition of Cn1cc(NC(=O)c2cc(NC(=O)CCCCCC(=O)Nc3cc(C(=O)Nc4cc(C(=O)NCCC(=N)N)n(C)c4)n(C)c3)cn2C)cc1C(=O)NCCC(=N)N
Return: -24.4

Enquiry: Recorded growth inhibition of CNC(=O)C(c1ccccc1)C(F)(F)F (stereo unspecified) , please.
Return: 10.3

Enquiry: Query: growth inhibition; subject: C/C=C/C(=O)OCCc1ccccc1
Return: 12.8

====

- experimental_details: NCI Yeast Anticancer Drug Screen. Data for the rad50 strain (AID 155);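 note: 0% = growth of vehicle-only cultures of the same strain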
- conditions_used: S. cerevisiae rad50 strain growth inhibition; at 50.0 µM
- Description: Growth inhibition of yeast strains with defined genetic alterations is measured as a screen for potential anti-cancer activity. Selected strains with alterations in DNA damage repair or cell cycle control were exposed to compounds and growth inhibition was measured relative to vehicle treated controls. The strain used in this assay is rad50
About 79,000 compounds went through this panel and 15% of them were active in at least one assay; those are over-represented in the sample as a whole. The source made the active and inactive calls. Rule as the data show it: active = growth inhibition above about 70%; inactive = the rest. Where a SMILES comes first, the peptide text is derived from it. The star is where a group is joined. For = O=C*
Pick one and only one: 1.0 for active, 0.0 for inactive

Answered cases to consult:
> print(dat)
                                   compound  category.label
1  CSCCC(NC(=O)C(Cc1ccccc1)NC=O)C(=O)O (stereo not drawn) (For-Phe-Met-OH; configuration not given here)             0.0
2           CN(C)c1ccc(Cc2ccc(N(C)C)cc2)cc1             0.0
3           C(=N\NC1=NCCCN1)/c1ccc2ccccc2c1             0.0

Enquiry: Record request — test call for O=C1C(=O)c2ccccc2C(O)=C1CN(CCO)CCO
Return: 0.0

Enquiry: Tell me the assay call for O=C(C(=O)N1CCc2ccccc21)c1c[nH]c2ccccc12 please.
Return: 0.0

Enquiry: Fill in: this test's call for CCOC(=O)c1ccc(NC(=O)CCCCl)cc1 is ___
Return: 0.0
